Experiment: Anti-inflammatory activity
pIC50: −log10 of the molar value.
Overview of reported pIC50 across a group of compounds:
quantity_measured: pIC50

compound="[H]/N=c1\\nc(-c2ccc(OC)c(O)c2)c2c(=O)n(C)c(=O)n(C)c2[nH]1 [Compound 4d]" reported=6.98
compound="[H]/N=c1\\nc(-c2ccc(OC)c(O)c2)c2c(=O)[nH]c(=O)[nH]c2[nH]1 [Compound 4c]" reported=6.66
compound="[H]/N=c1\\nc(-c2ccc(OCc3ccccc3)cc2)c2c(=O)[nH]c(=O)[nH]c2[nH]1 [Compound 4b]" reported=7.04
compound="[H]/N=c1\\nc(-c2cccc(OCc3ccccc3)c2)c2c(=O)[nH]c(=O)[nH]c2[nH]1 [Compound 4a]" reported=6.61
